target: T1, Histidine-tagged human CD40 protein (hCD40-His) (human, UniProt P25942 21-193); test: SPR, Biacore T200; antibody on Protein A chip, hCD40-His injected; 1:1 fit
T1 construct: not shown: histidine tag
T1 sequence (P25942 21-193 limits assumed): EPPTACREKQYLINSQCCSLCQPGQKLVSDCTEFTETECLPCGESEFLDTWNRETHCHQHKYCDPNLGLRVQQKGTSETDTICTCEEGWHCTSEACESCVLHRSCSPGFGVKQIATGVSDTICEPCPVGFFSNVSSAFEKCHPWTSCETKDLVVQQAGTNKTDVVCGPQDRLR
Please provide measured kon for the entries that follow.

Using the record for 7F10-H1K4-IgG4 (antibody, V domains shown, Humanized) VH: EVQLVESGGGLVQPGGSLRLSCATSGFTFSDYYMYWVRQAPGKRLEWVAYISYGGDSTFYPDTVRGRFTISRDNAKNSLYLQMNSLRAEDTAVYYCARPAPSAHSYYLDYWGQGTLLTVSS VL: DIQMTQSTSSLSASVGDRVTITCRASQDISNYLNWYQQKPDGTVKLLIYYTSRLHSGLPSRFSGSGSGTDYTLTISSLQQEDIATYYCQQGKTLPFTFASGTKLEIK , state its measured kon.
115000 M⁻¹ s⁻¹

Determine its reported kon: 7F10-H1K1-IgG4 (antibody, V domains shown, Humanized) VH: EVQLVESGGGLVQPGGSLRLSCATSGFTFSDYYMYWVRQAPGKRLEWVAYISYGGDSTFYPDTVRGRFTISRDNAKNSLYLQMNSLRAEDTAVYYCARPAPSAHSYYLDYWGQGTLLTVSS VL: DIQMTQSPSSLSASVGDRVTITCRASQDISNYLNWYQQKPGGAVKLLIYYTSRLHSGLPSRFSGSGSGTDFTFTISSLQPEDIATYYCQQGKTLPFTFASGTKLEIK
177000 M⁻¹ s⁻¹

Provide measured kon value, entry: 7F10-H1K3-IgG4 (antibody, V domains shown, Humanized) VH: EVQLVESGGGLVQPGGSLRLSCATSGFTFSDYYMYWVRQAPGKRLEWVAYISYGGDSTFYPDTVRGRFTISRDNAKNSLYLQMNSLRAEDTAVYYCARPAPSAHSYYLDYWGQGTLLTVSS VL: DIQMTQSTSSLSASVGDRVTITCRASQDISNYLNWYQQKPGGAVKLLIYYTSRLHSGLPSRFSGSGSGTDYTLTISSLQQEDIATYYCQQGKTLPFTFASGTKLEIK
73100 M⁻¹ s⁻¹
